These entries and their values trace back to patent US11447485B2.

experimental.target: human recombinant M2 receptor (Homo sapiens, UniProt P08172)
Sequence (P08172 whole entry): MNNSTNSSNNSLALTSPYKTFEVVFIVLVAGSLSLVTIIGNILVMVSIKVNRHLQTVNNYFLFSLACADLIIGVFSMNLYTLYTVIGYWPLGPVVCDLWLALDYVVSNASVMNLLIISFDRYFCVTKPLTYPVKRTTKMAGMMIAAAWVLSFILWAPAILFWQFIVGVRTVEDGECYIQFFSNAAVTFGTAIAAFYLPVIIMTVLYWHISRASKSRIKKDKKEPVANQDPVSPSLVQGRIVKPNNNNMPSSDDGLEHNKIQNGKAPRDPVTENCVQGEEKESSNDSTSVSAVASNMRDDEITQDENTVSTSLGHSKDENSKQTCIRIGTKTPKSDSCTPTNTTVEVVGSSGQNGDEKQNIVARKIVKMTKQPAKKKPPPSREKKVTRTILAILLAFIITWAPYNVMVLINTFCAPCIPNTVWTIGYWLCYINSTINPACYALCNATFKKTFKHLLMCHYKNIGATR
assay.name: biochemical
Format: binding
Below: a set of entries, each annotated with reported pKi.
Field pKi (float): negative decimal logarithm of the concentration in molar.

IN: Notebook: pull reported pKi for human recombinant M2 receptor (Homo sapiens, UniProt P08172), entry OCc1cc([C@@H](O)CNCCCC[N+]23CCC(CC2)[C@@H](OC[C@@](O)(c2ccccc2)C2CCCC2)C3)ccc1O
OUT: 9.03

IN: Cool, now OCc1cc([C@@H](O)CNCCC[N+]23CCC(CC2)[C@@H](OC[C@@](O)(c2ccccc2)C2CCCC2)C3)ccc1O
OUT: 9.01

###

Test system: β2 receptor in guinea pig tracheal smooth muscle
assay.name: BA activity: guinea pig isolated trachea pre-treated with histamine
assay.conditions: Cavia porcellus; histamine 3×10^−5 mol/L; read-out: BA (EC50)
experimental.endpoint: pEC50
Scale explanation: pEC50 corresponds to minus log10 of a concentration expressed in moles per litre.

IN: Lab request: please report pEC50 under test system β2 receptor in guinea pig tracheal smooth muscle for OCc1cc(C(O)CNCCCCCCOCCCCc2ccccc2)ccc1O (stereo not shown) [Salmeterol, reference compound]
OUT: 7.03

###

Examples of compounds with documented sel (β1/β2) follow.
experimental.target: human recombinant β2 adrenoceptor (Homo sapiens)
Construct: expressed in transfected cells
Sequence (P07550 whole entry): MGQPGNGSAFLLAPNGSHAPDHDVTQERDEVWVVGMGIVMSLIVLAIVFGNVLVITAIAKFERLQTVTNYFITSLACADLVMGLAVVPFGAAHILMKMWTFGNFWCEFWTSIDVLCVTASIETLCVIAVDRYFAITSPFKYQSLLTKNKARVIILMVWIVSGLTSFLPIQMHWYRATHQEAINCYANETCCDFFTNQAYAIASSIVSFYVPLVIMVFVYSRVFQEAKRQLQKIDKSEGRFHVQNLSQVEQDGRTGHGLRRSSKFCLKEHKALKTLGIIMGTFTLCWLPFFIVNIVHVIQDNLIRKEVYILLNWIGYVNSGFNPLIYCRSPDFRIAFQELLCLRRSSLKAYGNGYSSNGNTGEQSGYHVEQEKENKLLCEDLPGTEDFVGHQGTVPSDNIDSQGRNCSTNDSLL
assay.name: cell-based
Format: cell-based
assay.conditions: EC50 (β1)/EC50 (β2)
A bare number is all that is needed in reply.

Consider the reported sel (β1/β2) for these compounds:
COc1cc(CNCC(O)c2ccc(O)c3[nH]c(=O)ccc23)c(Cl)cc1NC(=O)CC[N+]12CCC(CC1)C(OCC(O)(c1ccccc1)C1CCCC1)C2 (stereo not drawn) :: 85.5
O=C1COc2c(cc(O)cc2[C@@H](O)CNCCCc2ccc(OCCC[N+]34CCC(CC3)[C@@H](OC[C@@](O)(c3ccccc3)C3CCCC3)C4)cc2)N1 :: 29.6

Now consider the entry below.
IN: Returns the measured sel (β1/β2) for the input compound. Input: OCc1cc([C@@H](O)CNCCOc2ccc(OCC[N+]34CCC(CC3)[C@@H](OC[C@@](O)(c3ccccc3)C3CCCC3)C4)cc2)ccc1O
OUT: 98.9

###

assay.name: Liver microsome metabolic stability in vitro (SD rat)
assay.conditions: SD rat liver microsomes
experimental.endpoint: liver extraction rate (ERh)
Just the number, please, no unit attached.

Example results:
CC(Cc1ccc(OCCC[N+]23CCC(CC2)[C@@H](OC[C@@](O)(c2ccccc2)C2CCCC2)C3)cc1)NC[C@H](O)c1ccc(O)c2[nH]c(=O)ccc12.[Br-] (some centres unmarked) :: 0.92
OCc1cc([C@@H](O)CNCCCCCCCCC[N+]23CCC(CC2)[C@@H](OC[C@@](O)(c2ccccc2)C2CCCC2)C3)ccc1O.[Br-] :: 0.97
CC(Cc1ccc(OCC[N+]23CCC(CC2)[C@@H](OC[C@@](O)(c2ccccc2)C2CCCC2)C3)cc1)NC[C@H](O)c1ccc(O)c(NC=O)c1 (some centres unmarked) :: 0.95
O=c1ccc2c([C@@H](O)CNCCCCCCCCC[N+]34CCC(CC3)[C@@H](OC[C@@](O)(c3ccccc3)C3CCCC3)C4)ccc(O)c2[nH]1.[Br-] :: 0.98

Now for a further compound.
IN: # lookup: liver extraction rate (ERh) of C[N+]1(C)CCC(OC(=O)Nc2cc(CCC(=O)Nc3ccc(CNC[C@H](O)c4ccc(O)c5[nH]c(=O)ccc45)cc3)ccc2-c2ccccc2)CC1.O=C([O-])C(F)(F)F [reference compound]
OUT: 0.48
